# TGI values compiled below
- System: SF-295 CNS
- experiment: NCI tumour cell line growth inhibition, 48 h
parameter measured: TGI (µM)

{"columns": ["compound", "tested target", "relational operator", "reported result"],
 "data": [
  ["C=CCc1[nH]c2c(OCc3ccccc3)cc(N(CC=C)C(C)=O)cc2c1C", "SF-295 CNS", "=", 33.5],
  ["Cc1c2ccnc(C(=O)NCCN(C)C)c2cc2c3cc(O)ccc3n(C)c12", "SF-295 CNS", "=", 3.37],
  ["Cc1ccc(Cl)cc1Nc1nc(C(F)(F)F)ccc1C(=O)N/N=C/c1cccnc1", "SF-295 CNS", "=", 4.51],
  ["CC(=O)OC1CC2CCN3C(=O)c4cc5c(cc4[C@H](C1OC(C)=O)C23)OCO5 (stereo not given in full)", "SF-295 CNS", ">", 100],
  ["O=C(NC(Cl)(C(F)(F)F)C(F)(F)F)c1ccc(F)cc1", "SF-295 CNS", ">", 100]
]}

---

Recorded TGI for the following molecules
- System: COLO 205 colon
- experiment: NCI tumour cell line growth inhibition, 48 h

{"columns": ["molecule", "TGI"],
 "data": [
  ["CC(C)(C)N1CCC1CN (stereo unspecified)", "> 100 µM"],
  ["COC(=O)C(Cc1nc2ccccc2[nH]c1=O)/C(=N\\NC(C)(C)C)C(=O)Nc1c(C)cc(Br)cc1C (stereo unspecified)", "36.5 µM"],
  ["C=CCc1[nH]c2c(OCc3ccccc3)cc(N(CC=C)C(C)=O)cc2c1C", "30.1 µM"],
  ["FC(F)(F)c1ccc(Cc2nc3cc4ccccc4cc3[nH]2)cc1", "> 100 µM"],
  ["CCN(CC)CC(C)(C)C(=O)/C=C/c1cccc(/C=C/C(=O)C(C)(C)CN(CC)CC)c1", "0.821 µM"],
  ["COc1nc2ccc(COc3ccc(C(=O)NC(CCC(=O)O)C(=O)O)cc3)cc2nc1OC (stereo unspecified)", "> 10 µM"],
  ["O=C1CC[C@H](N2C(=O)c3cccc4c(Cc5ccc(CN6CCOCC6)cc5)ccc2c34)C(=O)N1", "> 100 µM"],
  ["CC1=NN(C(=O)c2ccccc2O)C(=O)/C1=C/c1cccc(O)c1", "> 86.9 µM"],
  ["Cc1cccc(-c2[nH]ncc2-c2ccc3ncccc3n2)n1", "16.7 µM"],
  ["CC1(C)CC(=O)C(/C=N/C(N)=S)=C(O)C1", "> 100 µM"],
  ["CC(=O)Nc1ccc(NS(=O)(=O)c2ccc3nc(C)n(NS(=O)(=O)c4ccc(NC(C)=O)cc4)c(=O)c3c2)cc1", "> 100 µM"],
  ["Cc1nc2c(c(=O)[nH]1)S/C(=C(/C#N)c1nc3ccccc3[nH]1)N2c1ccccc1", "> 100 µM"],
  ["CN(C)CCNc1nc2ccccc2c2c1CCCC2", "> 100 µM"],
  ["NC1=NC2=c3ccccc3=C(c3cnccn3)C2(c2cnccn2)c2ccccc21 (stereo unspecified)", "> 100 µM"],
  ["Cc1cc(=O)[nH]c(N/N=C/c2cc(Br)ccc2O)n1", "32.5 µM"],
  ["CCOC(=O)CCC(NC(=O)Cc1ccc(Nc2nc3ccccc3nc2-c2cccs2)cc1)C(=O)OCC (stereo unspecified)", "> 100 µM"],
  ["CCN(CC)CCC(=O)c1ccc(Sc2ccc(F)cc2)cc1", "41.9 µM"],
  ["COc1ccccc1NC(=O)C1=C(C)NC(C)=C(C(=O)Nc2ccccc2OC)C1C1=CC=COC1", "> 100 µM"],
  ["C1=NCCN2CCN(CCN=Cc3ccccc3OCc3cccc(n3)COc3ccccc31)CC2", "> 50 µM"],
  ["COc1cc2nccc(Oc3ccc(NC(=O)NC4CC4)c(Cl)c3)c2cc1C(N)=O", "> 100 µM"],
  ["CO/C=C/C(=O)c1cc2cnc3c(=N)cc(NC(=O)C(C)C)c([nH]1)c23", "0.869 µM"]
]}
